assayRemarks: chemical genetic growth profiling, strain panel (AID 1159580);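 further: tested at 20 µM; growth read once vehicle control cultures reached saturation at 30 °C; 1 = growth at the plate median or of vehicle wells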
testContext: S. cerevisiae deletion strains, growth OD, locus YKL193C, strain SDS22, stronger effect = lower value
Among all 5,500 compounds or so, about 2,000 (36%) were called active. Another 18% or so got no clear call; they are omitted. The list shows a part of the results.
normalized growth listing for selected compounds.
outcomeMeasure: normalized growth

compound="C(=NC(N=Cc1ccccc1)c1ccccc1)c1ccccc1 (stereo not given)" valueobserved="0.995 (inactive)"
compound=O=C(SCc1c(Cl)cccc1Cl)c1ccc([N+](=O)[O-])o1 valueobserved="0.954 (inactive)"
compound=N#CC(C#N)=NNc1cc(C(F)(F)F)ccc1OCC(F)(F)F valueobserved="0.9 (inactive)"
compound=O=C(OCc1ccc(Oc2ccc(Cl)cc2Cl)c([N+](=O)[O-])c1)c1ccc([N+](=O)[O-])o1 valueobserved="0.986 (inactive)"
compound=N#C/C(=N/Nc1ccc(C(F)(F)F)cc1)C(=O)C1CC1 valueobserved="0.943 (inactive)"
compound=O=C(N/N=C\c1cc(Cl)cc(Cl)c1O)c1ccccc1Oc1ccccc1 valueobserved="0.965 (inactive)"
compound="CCOC(=O)C(O)(c1ccc(NC(=O)Nc2ccc(Cl)cc2)cc1)C(F)(F)F (stereo not given)" valueobserved="0.987 (inactive)"
compound=COc1ccc(/C(C#N)=C2C=C/C(=N/O)C(Cl)=C\2)cc1 valueobserved="0.964 (inactive)"
compound=CSc1nc(Sc2n[nH]c(-c3ccccc3)n2)cc(Sc2n[nH]c(-c3ccccc3)n2)n1 valueobserved="1.02 (inactive)"
compound=Nc1ccccc1C(=O)N/N=C\c1cc(Cl)cc(Cl)c1O valueobserved="0.967 (inactive)"

---

assayRemarks: chemical genetic growth profiling, strain panel (AID 1159580)
testContext: S. cerevisiae deletion strains, growth OD, locus YKL190W, strain CNB1
The whole screen tested about 5,500 compounds, of which about 2,000 (36%) were called active. Inconclusive results (about 18%) are left out. Rule as the data show it: active = normalized growth mostly below about 0.91 (no sharp cut-off); inconclusive = no clear call, values can overlap the other calls; inactive = mostly above about 0.92. The list shows a part of the results.
Possible outcomes: active, inactive

compound="C[C@]12C=CC(=O)C=C1CCC1C2C(=O)C[C@@]2(C)C1CC[C@]2(O)C(=O)CO (stereo not given in full)" labelclass=inactive
compound=COc1c2c(cc3occ(-c4ccc5c(c4)OCO5)c(=O)c13)OC(C)(C)C=C2 labelclass=inactive
compound=Cn1cnc([N+](=O)[O-])c1Sc1ncnc2nc[nH]c12 labelclass=inactive
compound="CCCC(=O)Nc1ncnc2c1ncn2C1O[C@@H]2COP(=O)(O)O[C@H]2[C@H]1OC(=O)CCC (stereo not given in full)" labelclass=inactive
compound=c1ccc2c(c1)-c1cccc3cccc-2c13 labelclass=active

---

assayRemarks: chemical genetic growth profiling, strain panel (AID 1159580);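 further: tested at 20 µM; growth read once vehicle control cultures reached saturation at 30 °C; 1 = growth at the plate median or of vehicle wells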
testContext: S. cerevisiae deletion strains, growth OD, locus YLR418C, strain cdc73
Out of some 5,500 compounds screened, about 2,000 (36%) were called active. Not shown: some 18% with an inconclusive outcome. No stated cut-off is given here; in the data, active means normalized growth mostly below about 0.91 (no sharp cut-off); inconclusive means no clear call, values can overlap the other calls; inactive means mostly above about 0.92. This is one part of the list.
Possible outcomes: yes = active, no = inactive

molecule=NCCS labelclass=no
molecule="CCOc1nc2cccc(C(=O)OC(C)OC(=O)OC3CCCCC3)c2n1Cc1ccc(-c2ccccc2-c2nn[nH]n2)cc1 (configuration not stated)" labelclass=no
molecule=CCCc1nc(C(C)(C)O)c(C(=O)OCc2oc(=O)oc2C)n1Cc1ccc(-c2ccccc2-c2nn[nH]n2)cc1 labelclass=no
molecule=COc1c(O)cc(O)cc1O labelclass=no
molecule=Cc1cc(O)c2c(c1O)C(=O)c1c(O)cc(C)c(O)c1C2=O labelclass=no
molecule=CCOc1ccc(Cc2nccc3cc(OCC)c(OCC)cc23)cc1OCC labelclass=yes
molecule="CCC(=O)O[C@H]1CCC2C3CCc4cc(O)ccc4C3CC[C@@]21C (some centres not stated)" labelclass=no
molecule=O=c1cc(-c2ccc(O)cc2)oc2cc(O[C@@H]3O[C@H](CO)[C@@H](O)[C@H](O)[C@H]3O[C@@H]3OC[C@](O)(CO)[C@H]3O)cc(O)c12 labelclass=no
molecule="C[C@]12C=CC(=O)C=C1CCC1C2CC[C@]2(C)C(=O)CCC12 (some centres not stated)" labelclass=no
molecule="COC(=O)C[C@H]1C(C)(C)[C@@H](OC(C)=O)[C@@H]2CC3C4CC(=O)O[C@@H](c5ccoc5)[C@]4(C)CCC3[C@@]1(C)C2=O (some centres not stated)" labelclass=no
molecule=Cn1c(=O)[nH]c(=O)c2[nH]cnc21 labelclass=no
molecule="C[C@]12CCC3C(CC[C@H]4C[C@@H](O)CC[C@]34C)C1CCC2=O (some centres not stated)" labelclass=yes
molecule=c1ccc2c(c1)[nH]c1cnccc12 labelclass=no
molecule="CC(=O)OC1CCC2C3CCc4cc(O)ccc4C3CCC12C (configuration not stated)" labelclass=no
molecule=Nc1ncnc2c1ncn2[C@@H]1O[C@H](CO)[C@@H](O)[C@@H]1O labelclass=no
molecule=COc1ccc2[nH]cc(CCNC(C)=O)c2c1 labelclass=no
molecule=COc1ccc(Cc2nccc3cc(OC)c(OC)cc23)cc1OC labelclass=no
molecule=O=c1[nH]c2ccccc2n1C1CCN(CCCC(c2ccc(F)cc2)c2ccc(F)cc2)CC1 labelclass=no
molecule=COc1cc(O)c(C(C)=O)c(OC)c1 labelclass=no
molecule=CCCCCN=C(N)N/N=C\c1c[nH]c2ccc(OC)cc12 labelclass=no
molecule=COc1cc(O)c(C)c(O)c1 labelclass=no
molecule="CC(=O)Oc1ccc2c(c1)CCC1C2CC[C@@]2(C)C1CC[C@@H]2OC(C)=O (some centres not stated)" labelclass=no

---

assayRemarks: chemical genetic growth profiling, strain panel (AID 1159580);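 further: tested at 20 µM; growth read once vehicle control cultures reached saturation at 30 °C; 1 = growth at the plate median or of vehicle wells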
testContext: S. cerevisiae deletion strains, growth OD, locus YDL035C, strain GPR1, stronger effect = lower value
Out of some 5,500 compounds screened, about 2,000 (36%) were called active. Roughly 18% stayed inconclusive and do not appear here. Some of the results follow.
outcomeMeasure: normalized growth

compound="COC(=O)C[C@H]1C(C)(C)[C@@H](OC(C)=O)[C@@H]2CC3C4CC(=O)O[C@@H](c5ccoc5)[C@]4(C)CCC3[C@@]1(C)C2=O (some centres undefined)" outcomemeasure="normalized growth" valueobserved=0.995
compound=N#Cc1ccc2c(c1)N(CCCN1CCC(O)CC1)c1ccccc1S2 outcomemeasure="normalized growth" valueobserved=1.01
compound=O=c1n(CCCN2CCN(c3cccc(Cl)c3)CC2)nc2ccccn12 outcomemeasure="normalized growth" valueobserved=0.984
compound=CCCCCN=C(N)N/N=C\c1c[nH]c2ccc(OC)cc12 outcomemeasure="normalized growth" valueobserved=0.989
compound=O=[N+]([O-])/N=C1/NCCN1Cc1ccc(Cl)cc1 outcomemeasure="normalized growth" valueobserved=0.988
compound=CCCCC(=O)N(Cc1ccc(-c2ccccc2-c2nn[nH]n2)cc1)[C@H](C(=O)O)C(C)C outcomemeasure="normalized growth" valueobserved=0.987
compound="CC1=C(C(=O)O)N2C(=O)[C@@H](NC(=O)[C@H](N)C3=CCC=CC3)C2SC1 (some centres undefined)" outcomemeasure="normalized growth" valueobserved=0.965
compound=CCCc1nc(C(C)(C)O)c(C(=O)OCc2oc(=O)oc2C)n1Cc1ccc(-c2ccccc2-c2nn[nH]n2)cc1 outcomemeasure="normalized growth" valueobserved=1
compound=OCCN1CCN(CCCN2c3ccccc3Sc3ccc(Cl)cc32)CC1 outcomemeasure="normalized growth" valueobserved=0.996

---

assayRemarks: chemical genetic growth profiling, strain panel (AID 1159580);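 further: tested at 20 µM; growth read once vehicle control cultures reached saturation at 30 °C; 1 = growth at the plate median or of vehicle wells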
testContext: S. cerevisiae deletion strains, growth OD, locus YMR129W, stronger effect = lower value
Out of some 5,500 compounds screened, about 2,000 (36%) were called active. Not shown: some 18% with an inconclusive outcome. This is one part of the list.
normalized growth listing for selected molecules.
outcomeMeasure: normalized growth

molecule="OC[C@@H](O)C(O[C@@H]1O[C@H](CO)[C@H](O)[C@H](O)[C@H]1O)[C@H](O)[C@@H](O)CO (stereo partly specified)" valueobserved=0.995
molecule="CSCCC(NC=O)C(=O)NC(CC(C)C)C(=O)NC(Cc1ccccc1)C(=O)O (stereo unspecified)" valueobserved=1
molecule="CC(=O)O[C@@H]1CC2C(C)(C)[C@H](O)C[C@H](O)[C@]2(C)C2CC[C@@]3(C)C(=CC(=O)O[C@H]3c3ccoc3)[C@@]21C (stereo partly specified)" valueobserved=0.972
molecule=COc1ccc2[nH]cc(CCNC(C)=O)c2c1 valueobserved=0.977
molecule=Nc1ncnc2c1ncn2[C@@H]1O[C@H](CO)[C@@H](O)[C@@H]1O valueobserved=1.01
molecule="CC1=C(C(=O)O)N2C(=O)[C@@H](NC(=O)[C@H](N)C3=CCC=CC3)C2SC1 (stereo partly specified)" valueobserved=1.02
molecule=COc1ccc2c(c1)[nH]c1c(C)nccc12 valueobserved=0.988
molecule=CC(C)=CCC1=C(O)c2ccccc2C(=O)C1=O valueobserved=0.773
molecule=NCCS valueobserved=1.01
molecule=Cc1c(N(C)CS(=O)(=O)O)c(=O)n(-c2ccccc2)n1C valueobserved=1
molecule="CC1=C2CCC3C(CC[C@]4(C)C(=O)CCC34)[C@@]2(C)CCC1=O (stereo partly specified)" valueobserved=0.993
molecule=COc1ccc2c(=O)c(CC(=O)O)coc2c1 valueobserved=0.985
molecule="C[N+]1(C)C2CC[C@H]1CC(OC(=O)C(O)c1ccccc1)C2 (stereo partly specified)" valueobserved=0.999
molecule="C[C@]12CCC3C(CC[C@H]4C[C@@H](O)CC[C@]34C)C1CCC2=O (stereo partly specified)" valueobserved=1.04
molecule="CCOc1nc2cccc(C(=O)OC(C)OC(=O)OC3CCCCC3)c2n1Cc1ccc(-c2ccccc2-c2nn[nH]n2)cc1 (stereo unspecified)" valueobserved=1.03
molecule="COc1cc(OC)c2c(c1Cl)OC1(C2=O)C(O)=CC(=O)CC1C (stereo unspecified)" valueobserved=1.01
molecule=CCCCCN=C(N)N/N=C\c1c[nH]c2ccc(OC)cc12 valueobserved=1.01
molecule="C[C@]12CCC3C(CC[C@H]4CC(=O)CC[C@]34C)C1CCC2=O (stereo partly specified)" valueobserved=0.929
molecule=Cc1cc(C)nc(NS(=O)(=O)c2ccc(N)cc2)n1 valueobserved=0.974
molecule=O=C1c2ccc(O)c(O)c2C(=O)c2c(O)ccc(O)c21 valueobserved=0.756
molecule="CCCC(=O)Nc1ncnc2c1ncn2C1O[C@@H]2COP(=O)(O)O[C@H]2[C@H]1OC(=O)CCC (stereo partly specified)" valueobserved=0.991
molecule=CCCc1nc(C(C)(C)O)c(C(=O)OCc2oc(=O)oc2C)n1Cc1ccc(-c2ccccc2-c2nn[nH]n2)cc1 valueobserved=0.97
molecule=COc1ccc(Cc2nccc3cc(OC)c(OC)cc23)cc1OC valueobserved=0.998
molecule="CN1Cc2c(N)cccc2C(c2ccccc2)C1 (stereo unspecified)" valueobserved=1.01
molecule=CC1(C)C[C@@H]2C(=O)CC[C@H]3O[C@]3(C)CC[C@H]21 valueobserved=1.01
molecule="CC(=O)OCC(=O)[C@@]1(O)CCC2C3CCC4=CC(=O)CC[C@]4(C)[C@@]3(F)[C@@H](O)C[C@@]21C (stereo partly specified)" valueobserved=1.01
molecule=CN(C)c1nc(N(C)C)nc(N(C)C)n1 valueobserved=0.992
molecule=c1ccc2c(c1)[nH]c1cnccc12 valueobserved=1.01
molecule=Cc1nccc2c1[nH]c1ccccc12 valueobserved=0.984
molecule=CC(=O)c1ccc2c(c1)N(CCCN(C)C)c1ccccc1S2 valueobserved=0.991
molecule="O=C1OC(=O)C2C3CCC(O3)C12 (stereo unspecified)" valueobserved=1
